Value source: paper PMC4963854

MEASURED TARGET: Fluo-Ia (Streptococcus pyogenes)
ASSAY METHOD TEXT: fluorescence polarization
PARAMETER MEASURED: Kd (nM)

>  <BINDER>
Epsilon antitoxin (protein) AVTYEKTFEIEIINELSASVYNRVLNYVLNHELNKNDSQLLEVNLLNQLKLAKRVNLFDYSLEELQAVHEYWRSMNRYSKQVLNKEKVA

>  <UNIT SYMBOL>
nM

>  <NUMERIC READOUT>
74.5

$$$$
